As shown below, each of these binders has a reported EC50 (% of hG-CSF) conjugated to SPA-PEG 5000 value.
# TGT: T1, human G-CSF receptor (human, UniProt Q99062 25-836)
# T1 sequence (looked up): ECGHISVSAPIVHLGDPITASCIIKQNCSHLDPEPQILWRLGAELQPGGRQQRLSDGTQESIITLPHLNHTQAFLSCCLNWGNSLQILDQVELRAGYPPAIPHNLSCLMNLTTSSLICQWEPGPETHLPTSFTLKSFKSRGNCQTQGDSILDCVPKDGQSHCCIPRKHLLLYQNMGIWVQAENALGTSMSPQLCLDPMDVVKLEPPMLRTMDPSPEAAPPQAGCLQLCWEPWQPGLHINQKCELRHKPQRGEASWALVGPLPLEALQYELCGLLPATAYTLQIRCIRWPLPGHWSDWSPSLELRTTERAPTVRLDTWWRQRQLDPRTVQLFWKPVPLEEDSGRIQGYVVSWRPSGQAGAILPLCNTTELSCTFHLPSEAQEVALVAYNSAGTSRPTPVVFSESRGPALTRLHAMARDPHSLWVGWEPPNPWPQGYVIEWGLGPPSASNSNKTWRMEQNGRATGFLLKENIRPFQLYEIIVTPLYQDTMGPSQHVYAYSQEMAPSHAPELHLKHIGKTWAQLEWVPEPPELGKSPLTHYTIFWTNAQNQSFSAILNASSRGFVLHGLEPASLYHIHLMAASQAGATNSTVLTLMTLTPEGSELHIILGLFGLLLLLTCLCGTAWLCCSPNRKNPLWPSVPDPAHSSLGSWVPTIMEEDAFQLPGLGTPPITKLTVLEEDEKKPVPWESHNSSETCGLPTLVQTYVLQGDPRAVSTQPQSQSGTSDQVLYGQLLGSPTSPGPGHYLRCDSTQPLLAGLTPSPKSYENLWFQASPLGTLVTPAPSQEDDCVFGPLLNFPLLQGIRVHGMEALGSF
# ASSAY: cell-based or functional assay

Worked set:
Problem: Which measured EC50 (% of hG-CSF) conjugated to SPA-PEG 5000 value corresponds to G-CSF variant 16R conjugated to SPA-PEG 5000 (ligand, SPA-PEG 5000 conjugated to the available PEGylation sites) TPLGPASSLPQSFLLRCLEQVRKIQGDGAALQEKLCATYKLCHPEELVLLGHSLGIPWAPLSSCPSQALQLAGCLSQLHSGLFLYQGLLQALEGISPELGPTLDTLQLDVADFATTIWQQMEELGMAPALQPTQGAMPAFASAFQRRAGGVLVASHLQSFLEVSYRVLRHLAQP ?
Solution: 1 % of hG-CSF

Problem: Entry G-CSF variant 34R conjugated to SPA-PEG 5000 (ligand, SPA-PEG 5000 conjugated to the available PEGylation sites) TPLGPASSLPQSFLLKCLEQVRKIQGDGAALQERLCATYKLCHPEELVLLGHSLGIPWAPLSSCPSQALQLAGCLSQLHSGLFLYQGLLQALEGISPELGPTLDTLQLDVADFATTIWQQMEELGMAPALQPTQGAMPAFASAFQRRAGGVLVASHLQSFLEVSYRVLRHLAQP has what EC50 (% of hG-CSF) conjugated to SPA-PEG 5000?
Solution: 1 % of hG-CSF

Problem: May I ask what EC50 (% of hG-CSF) conjugated to SPA-PEG 5000 has been recorded for G-CSF variant 40R conjugated to SPA-PEG 5000 (ligand, SPA-PEG 5000 conjugated to the available PEGylation sites) TPLGPASSLPQSFLLKCLEQVRKIQGDGAALQEKLCATYRLCHPEELVLLGHSLGIPWAPLSSCPSQALQLAGCLSQLHSGLFLYQGLLQALEGISPELGPTLDTLQLDVADFATTIWQQMEELGMAPALQPTQGAMPAFASAFQRRAGGVLVASHLQSFLEVSYRVLRHLAQP ?
Solution: 1 % of hG-CSF

Problem: // EC50 (% of hG-CSF) conjugated to SPA-PEG 5000 lookup, key: G-CSF variant K16/34/40R T105K S159K conjugated to SPA-PEG 5000 (ligand, SPA-PEG 5000 conjugated to the available PEGylation sites) TPLGPASSLPQSFLLRCLEQVRKIQGDGAALQERLCATYRLCHPEELVLLGHSLGIPWAPLSSCPSQALQLAGCLSQLHSGLFLYQGLLQALEGISPELGPTLDKLQLDVADFATTIWQQMEELGMAPALQPTQGAMPAFASAFQRRAGGVLVASHLQKFLEVSYRVLRHLAQP
Solution: 20 % of hG-CSF

Problem: Quick one: EC50 (% of hG-CSF) conjugated to SPA-PEG 5000 of G-CSF variant K16/34/40R Q158 conjugated to SPA-PEG 5000 (ligand, SPA-PEG 5000 conjugated to the available PEGylation sites) TPLGPASSLPQSFLLRCLEQVRKIQGDGAALQERLCATYRLCHPEELVLLGHSLGIPWAPLSSCPSQALQLAGCLSQLHSGLFLYQGLLQALEGISPELGPTLDTLQLDVADFATTIWQQMEELGMAPALQPTQGAMPAFASAFQRRAGGVLVASHLKSFLEVSYRVLRHLAQP ?
Solution: 5 % of hG-CSF

---
Problem: // query EC50 (% of hG-CSF) conjugated to SPA-PEG 5000 value for entry G-CSF variant K16/34/40R Q90K T105K S159K conjugated to SPA-PEG 5000 (ligand, SPA-PEG 5000 conjugated to the available PEGylation sites) TPLGPASSLPQSFLLRCLEQVRKIQGDGAALQERLCATYRLCHPEELVLLGHSLGIPWAPLSSCPSQALQLAGCLSQLHSGLFLYQGLLKALEGISPELGPTLDKLQLDVADFATTIWQQMEELGMAPALQPTQGAMPAFASAFQRRAGGVLVASHLQKFLEVSYRVLRHLAQP
Solution: 5 % of hG-CSF

Problem: Can you share its EC50 (% of hG-CSF) conjugated to SPA-PEG 5000? I mean this binder: G-CSF without N-terminal Histidine tag conjugated to SPA-PEG 5000 (ligand, SPA-PEG 5000 conjugated to the available PEGylation sites) TPLGPASSLPQSFLLKCLEQVRKIQGDGAALQEKLCATYKLCHPEELVLLGHSLGIPWAPLSSCPSQALQLAGCLSQLHSGLFLYQGLLQALEGISPELGPTLDTLQLDVADFATTIWQQMEELGMAPALQPTQGAMPAFASAFQRRAGGVLVASHLQSFLEVSYRVLRHLAQP
Solution: 0.1 % of hG-CSF

Problem: Entry under review: G-CSF variant K16/34/40R Q70K T105K Q120K conjugated to SPA-PEG 5000 (ligand, SPA-PEG 5000 conjugated to the available PEGylation sites) TPLGPASSLPQSFLLRCLEQVRKIQGDGAALQERLCATYRLCHPEELVLLGHSLGIPWAPLSSCPSQALKLAGCLSQLHSGLFLYQGLLQALEGISPELGPTLDKLQLDVADFATTIWQKMEELGMAPALQPTQGAMPAFASAFQRRAGGVLVASHLQSFLEVSYRVLRHLAQP . Reported EC50 (% of hG-CSF) conjugated to SPA-PEG 5000?
Solution: 2 % of hG-CSF

Problem: Sample G-CSF variant K16/34/40R Q90K Q120K conjugated to SPA-PEG 5000 (ligand, SPA-PEG 5000 conjugated to the available PEGylation sites) TPLGPASSLPQSFLLRCLEQVRKIQGDGAALQERLCATYRLCHPEELVLLGHSLGIPWAPLSSCPSQALQLAGCLSQLHSGLFLYQGLLKALEGISPELGPTLDTLQLDVADFATTIWQKMEELGMAPALQPTQGAMPAFASAFQRRAGGVLVASHLQSFLEVSYRVLRHLAQP — what was its EC50 (% of hG-CSF) conjugated to SPA-PEG 5000?
Solution: 15 % of hG-CSF

Recorded values, source patent US20030118612A1.
